test: Plasma pharmacokinetics; format: in vivo, human; conditions: human, plasma, oral, 100 mg, t1/2 elimination half-life, 100 mg (14/14); geometric mean (range); n 13
endpoint_label: half-life (h)
One number for each entry, in h.

*Q* Provide measured half-life value, entry: O=C(c1ccc(F)c(F)c1Nc1ccc(I)cc1F)N1CC(O)([C@@H]2CCCCN2)C1 [cobimetinib]
*A* 54

====

test: Plasma pharmacokinetics; assay type: in vivo, human; conditions: human, plasma, oral, terminal half-life, range, across all doses
endpoint_label: half-life

*Q* Provide measured half-life value, entry: O=C(c1ccc(F)c(F)c1Nc1ccc(I)cc1F)N1CC(O)([C@@H]2CCCCN2)C1
*A* 23 to 80 h
